Measured pKi values are reported for all entries that follow.
# target system: RSV N protein (N-P interaction) (Human respiratory syncytial virus A (strain A2), UniProt P03418)
# Sequence (P03418 whole entry): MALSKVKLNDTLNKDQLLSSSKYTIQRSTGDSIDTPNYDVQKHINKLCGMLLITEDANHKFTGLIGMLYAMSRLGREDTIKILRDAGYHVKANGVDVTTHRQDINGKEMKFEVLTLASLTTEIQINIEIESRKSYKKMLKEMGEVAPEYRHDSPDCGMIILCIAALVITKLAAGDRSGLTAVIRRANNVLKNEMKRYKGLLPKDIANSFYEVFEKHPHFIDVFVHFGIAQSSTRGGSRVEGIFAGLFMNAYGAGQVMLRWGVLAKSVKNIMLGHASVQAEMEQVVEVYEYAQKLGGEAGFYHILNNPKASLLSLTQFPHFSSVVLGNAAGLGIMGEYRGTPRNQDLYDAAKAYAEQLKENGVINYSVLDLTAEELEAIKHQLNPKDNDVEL
# protocol description: FP assay: competition with 5-FAM-Ppep for purified RSV N
# particulars: FP assay, purified RSV N vs 5-FAM-Ppep
pKi: −log10 of the molar value.

[[record]]
compound = "CC(=O)Oc1ccc2c(C)c(Cl)c(=O)oc2c1 [GRP-268365]"
experimental_value = 5.66

[[record]]
compound = "CNC(=O)C1=CC(c2ccccc2Cl)n2nnnc2N1 (stereo not shown) [EJ3057]"
experimental_value = "< 3.52"

[[record]]
compound = "CC(C)COC(=O)C1=CC(c2ccccc2Cl)n2nnnc2N1 (stereo not shown) [EJ3043]"
experimental_value = "< 3.52"

[[record]]
compound = "CN(C)C(=O)C1=CC(c2ccccc2Cl)n2nnnc2N1 (stereo not shown) [EJ3054]"
experimental_value = "< 3.52"


Recorded pKi of CC(=O)Oc1ccc2c(C)cc(=O)oc2c1 [EJ21257] , please. 5.54

Please do the same for COC(=O)Nc1ccc2c(C)c(Cl)c(=O)oc2c1 [EJ3066] as well. < 3.52

Also O=C(O)C1=CC(c2ccccc2)n2nnnc2N1 (stereo not shown) [RJW-3-024] , if possible. 5.00

Could you do the same for Cc1c(Cl)c(=O)oc2cc(O)ccc12 [AX801] , please? < 3.52

What do we get for Cc1c(Cl)c(=O)oc2cc(OC(=O)C(C)C)ccc12 [ZD-3-067] ? 5.80

Same lookup for COc1ccc2c(C)c(Cl)c(=O)oc2c1 [EJ3061] , please. < 3.52

Next compound up: COC(=O)C1=CC(c2ccccc2Cl)n2nnnc2N1 (stereo not shown) [EJ3051] < 3.52

Same question, CC(C)OC(=O)C1=CC(c2ccccc2Cl)n2nnnc2N1 (stereo not shown) [ZD-3-069] this time < 3.52

Same thing, different compound: O=C(OCC(F)(F)F)C1=CC(c2ccccc2Cl)n2nnnc2N1 (stereo not shown) [ZD-3-064] < 3.52

Also, CCOC(=O)C1=CC(c2ccccc2Cl)n2nnnc2N1 (stereo not shown) [EJ3062] please. < 3.52

Okay, and Cc1c(Cl)c(=O)oc2cc(OC(C)C)ccc12 [EJ3063] ? < 3.52

// repeat for O=C(O)C1=CC(c2ccccc2Cl)n2nnnc2N1 (stereo not shown) [GRP-171194] and report 5.62

###

# protocol description: Cytotoxicity in HEp2 cells
# Format: cell-based
# particulars: human, read-out: CC50 HEp2 cells RSV
readout type: CC50 at 48 h

Solved entries (count: 2):
[[record]]
smiles_text = "Cc1c(Cl)c(=O)oc2cc(OC(C)C)ccc12"
experimental_value = "1.2 µM"

[[record]]
smiles_text = "COC(=O)Nc1ccc2c(C)c(Cl)c(=O)oc2c1"
experimental_value = "> 100 µM"


Next up:
Look up CC50 at 48 h for this molecule: "CC(=O)Oc1ccc2c(C)cc(=O)oc2c1" > 100 µM

###

# protocol description: Cytotoxicity in BEAS2B cells
# Assay type: cell-based
# particulars: human, read-out: CC50 BEAS2B cells RSV
# Protocol: For initial potency assessment, recombinant RSV reporter viruses can be employed to determine dose-response curves. […] Active concentrations can be calculated by four-parameter variable slope regression modeling. […] Resistance-validated Caco-2 monolayers (TEER value >0.5×103Ω) will receive compound from the apical side, followed by LC-MS/MS-based quantification of substance intracellularly and in both chambers after 2-hour incubation. […]
readout type: CC50 at 48 h

Example entries and their recorded answers appear below.
[[record]]
compound = "O=C(OCC(F)(F)F)C1=CC(c2ccccc2Cl)n2nnnc2N1 (centres unmarked)"
readout_type = "CC50 at 48 h"
experimental_value = "> 300 µM"

[[record]]
compound = "CNC(=O)C1=CC(c2ccccc2Cl)n2nnnc2N1 (centres unmarked)"
readout_type = "CC50 at 48 h"
experimental_value = "> 100 µM"

[[record]]
compound = "Cc1c(Cl)c(=O)oc2cc(OC(=O)C(C)C)ccc12"
readout_type = "CC50 at 48 h"
experimental_value = "251 µM"


// query CC50 at 48 h value for entry COC(=O)C1=CC(c2ccccc2Cl)n2nnnc2N1 (centres unmarked) 102 µM

And what about the compound "Cc1c(Cl)c(=O)oc2cc(O)ccc12" ? 116 µM

Same question for CCOC(=O)C1=CC(c2ccccc2Cl)n2nnnc2N1 (centres unmarked) please. > 300 µM

Same again, this time with "Cc1c(Cl)c(=O)oc2cc(OC(C)C)ccc12" > 300 µM

What about CC(C)OC(=O)C1=CC(c2ccccc2Cl)n2nnnc2N1 (centres unmarked) ? > 300 µM

###

Recorded measurements of CC50 at 48 h, one per entry
# protocol description: Cytotoxicity in HEp2 cells
# Format: cell-based
# particulars: human, read-out: CC50 HEp2 cells RSV

// worked examples, CC50 at 48 h included
[[record]]
compound = "O=C(O)C1=CC(c2ccccc2Cl)n2nnnc2N1 (centres unmarked)"
experimental_value = "> 300 µM"

[[record]]
compound = "Cc1c(Cl)c(=O)oc2cc(OC(=O)C(C)C)ccc12"
experimental_value = "7 µM"

[[record]]
compound = "CC(C)COC(=O)C1=CC(c2ccccc2Cl)n2nnnc2N1 (centres unmarked)"
experimental_value = "> 300 µM"

[[record]]
compound = "CCOC(=O)C1=CC(c2ccccc2Cl)n2nnnc2N1 (centres unmarked)"
experimental_value = "> 300 µM"


Return reported CC50 at 48 h; argument: CC(C)OC(=O)C1=CC(c2ccccc2Cl)n2nnnc2N1 (centres unmarked) > 300 µM

###

# protocol description: Cytotoxicity in BEAS2B cells
# Assay type: cell-based
# particulars: human, read-out: CC50 BEAS2B cells RSV
compounds and their reported CC50 at 48 h

Examples with their reported CC50 at 48 h follow.
[[record]]
compound = "O=C(O)C1=CC(c2ccccc2)n2nnnc2N1 (stereo not drawn)"
experimental_value = "> 300 µM"

[[record]]
compound = "COC(=O)Nc1ccc2c(C)c(Cl)c(=O)oc2c1"
experimental_value = "> 100 µM"


Now consider a different compound.
Item CN(C)C(=O)C1=CC(c2ccccc2Cl)n2nnnc2N1 (stereo not drawn) has what recorded CC50 at 48 h? 131 µM

###

# System: RSV
# protocol description: Cell-based anti-RSV potency in BEAS2B cells
# particulars: human respiratory syncytial virus, BEAS-2B
readout type: pIC50
Give only the number. pIC50 is defined as minus log10 of concentration in molar units.

Here is how some molecules turned out for pIC50.
[[record]]
molecule = "COC(=O)Nc1ccc2c(C)c(Cl)c(=O)oc2c1 [EJ3066]"
readout_type = "pIC50"
experimental_value = 3.89

[[record]]
molecule = "Cc1c(Cl)c(=O)oc2cc(O)ccc12 [AX801]"
readout_type = "pIC50"
experimental_value = 4.19

[[record]]
molecule = "Cc1c(Cl)c(=O)oc2cc(OC(C)C)ccc12 [EJ3063]"
readout_type = "pIC50"
experimental_value = 4.84

[[record]]
molecule = "CN(C)C(=O)C1=CC(c2ccccc2Cl)n2nnnc2N1 (centres unmarked) [EJ3054]"
readout_type = "pIC50"
experimental_value = 4.00

[[record]]
molecule = "COC(=O)C1=CC(c2ccccc2Cl)n2nnnc2N1 (centres unmarked) [EJ3051]"
readout_type = "pIC50"
experimental_value = 4.00


Fill in: pIC50 of Cc1c(Cl)c(=O)oc2cc(OC(=O)C(C)C)ccc12 [ZD-3-067] is ___ 3.87

# repeat for CNC(=O)C1=CC(c2ccccc2Cl)n2nnnc2N1 (centres unmarked) [EJ3057] 3.95

###

# protocol description: Cytotoxicity in BEAS2B cells
# Assay type: cell-based
# particulars: human, read-out: CC50 BEAS2B cells RSV
readout type: CC50 at 48 h

Field: example entries. Status: answers known.
[[record]]
compound = "CC(C)COC(=O)C1=CC(c2ccccc2Cl)n2nnnc2N1 (stereo not drawn)"
readout_type = "CC50 at 48 h"
experimental_value = "> 300 µM"

[[record]]
compound = "CC(=O)Oc1ccc2c(C)cc(=O)oc2c1"
readout_type = "CC50 at 48 h"
experimental_value = "113 µM"


We now examine a further compound.
Entry under review: O=C(O)C1=CC(c2ccccc2Cl)n2nnnc2N1 (stereo not drawn) . Reported CC50 at 48 h? > 300 µM
